System: S. typhimurium TA100
assay-procedure: Microdilution assay, MIC
Type: cell-based
settings: Salmonella enterica, 20 h, read-out: MIC S. typhimurium TA100
reported-endpoint: MIC
# include the unit after the value

COc1c(NC(=O)c2ccc(NC(=O)c3ccc(NC(=O)[C@H](Cc4c[nH]nn4)NC(=O)c4ccc(NC(=O)/C(C)=C/c5ccc(O)cc5)cc4)c(OC)c3O)c(OC)c2O)ccc(C(=O)O)c1O: 2000 µg/mL

API: the following record is the query input.
Name the recorded MIC of `C/C(=C\c1ccc(O)cc1)C(=O)Nc1ccc(C(=O)N[C@@H](CC#N)C(=O)Nc2ccc(C(=O)Nc3ccc(C(=O)Nc4ccc(C(=O)O)c(O)c4)c(O)c3)cc2)cc1` , assay system S. typhimurium TA100.
4000 µg/mL
